Reference source for all entries: PubChem BioAssay

experiment: inhibitors of TNFa-induced NFkB p65 translocation, primary screen, imaging, HUVEC, MLSMR starter and 10KST1 sets (AID 438); details: HUVEC TNFa-induced p65 nuclear translocation; at 2 µM, stronger effect = higher value, 0% TNFa-plus-vehicle, 100% no-TNFa wells;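 note: compound added about 3h40 before a 20 min TNFalpha stimulation; signal is the nuclear over cytoplasmic p65 intensity ratio per well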
MEASUREMENT TYPE: inhibition (%)
Supply the numeric figure in %, leaving out any unit text.

Can you share its inhibition? I mean this molecule: O=C(Nc1nc(-c2ccncc2)cs1)C1COc2ccccc2O1 (stereo not drawn)
-4.9

// inhibition lookup, key: CCc1nc(C)c(C#N)c2cc(OC)c(OC)cc12
-1.1

Entry under review: O=S(NCc1ccco1)C12CC3CC(CC(C3)C1)C2 (stereo not drawn) . Reported inhibition?
12.5

For the molecule shown here, O=S(=O)(NCC(c1cccnc1)N1CCN(c2ccccc2)CC1)c1cc(F)ccc1F (stereo not drawn) , give the reported inhibition.
-6.2

What value of measured inhibition is listed for COc1ccc(N2CCN(C(=O)COc3ccc4ccccc4c3)CC2)cc1 ?
7.3

Endpoint output: inhibition of O=C(Nc1ccc(Cl)c(C(F)(F)F)c1)N1CCCC(O)C1 (stereo not drawn) . Value?
4.5

For CCCCN(C)C(=O)c1cn(C)c2ccc(S(=O)(=O)N(C)C)cc2c1=O , what is its reported inhibition?
-5.1

Quick one: inhibition for CCOC(=O)Cc1nnc2c(Nc3ccccc3F)nc3nonc3n12 ?
-9.1

// inhibition lookup, key: COc1ccc2c(c1)C(C)=CC(C)(C)N2C(=O)C(C)N1C(=O)c2ccccc2C1=O (stereo not drawn)
4.5

For CCOC(=O)N1CCC(NC(=O)c2cc3c(=O)n(C)c4ccccc4c3n2C)CC1 , what is its reported inhibition?
-2.8

# get_value(readout='inhibition', item= COc1cccc(-n2c(SCC(=O)N3CCCC3)nc3c([nH]c4ccccc43)c2=O)c1 )
-5.9

Consider the molecule COC(=O)c1cc(OC)c(OCc2cc(C(=O)OC)oc2C)c(OC)c1 and give its measured inhibition.
1.5

Give its inhibition value. Item: c1ccc(Cn2nnnc2C(c2cccs2)N2CCSCC2)cc1 (stereo not drawn)
-10.4

inhibition lookup needed for O=c1[nH]c(/C(=N\O)c2ccccc2)no1 , thanks.
2

Give the measured inhibition of COc1cc2c(cc1OC)C(c1cccnc1)CC(=O)N2 (stereo not drawn) .
-7.4

I would be grateful if you could share the reported inhibition for O=C(NCc1ccco1)c1ccc2c(=O)n(CC3CCCO3)c(=S)[nH]c2c1 (stereo not drawn) .
-2.6

What inhibition value was documented for this molecule, CCN1CCN(Cc2nc3c(c(=O)n(C)c(=O)n3C)n2CC(=O)c2ccccc2)CC1 ?
-1.8

Which inhibition reading was recorded for the molecule OCCn1c(-c2ccc3c(c2)OCO3)csc1=Nc1ccccc1 ?
0.2

Recorded inhibition for COCCN(CCOC)Cc1c(C)[nH]c2ccccc2c1=O , please?
6.8

# get_value(readout='inhibition', item= CCOC(=O)Cn1nc(-c2ccc(Cl)cc2)cc1N )
15.6

What does the record list as inhibition for Cc1ccc2c(c1)NC(=O)C(CC(=O)NC1CCCCC1C)O2 (stereo not drawn) ?
2

Please report the recorded inhibition for COCCOC(=O)c1[nH]c2c(c1C)C(=O)CC(c1ccc(N(C)C)cc1)C2 (stereo not drawn) .
-4.6

Using the record for COc1cccc(N(C(C)=O)c2nc(C)cc(C)c2C#N)c1 , report its inhibition.
13.4
